target: Glycogen synthase kinase-3 beta (Homo sapiens, UniProt P49841); assay: Inhibition of GSK3-beta (unknown origin) at 10 uM incubated for 60 mins by ATP-Glo luminescent assay
Sequence (P49841 whole entry, looked up): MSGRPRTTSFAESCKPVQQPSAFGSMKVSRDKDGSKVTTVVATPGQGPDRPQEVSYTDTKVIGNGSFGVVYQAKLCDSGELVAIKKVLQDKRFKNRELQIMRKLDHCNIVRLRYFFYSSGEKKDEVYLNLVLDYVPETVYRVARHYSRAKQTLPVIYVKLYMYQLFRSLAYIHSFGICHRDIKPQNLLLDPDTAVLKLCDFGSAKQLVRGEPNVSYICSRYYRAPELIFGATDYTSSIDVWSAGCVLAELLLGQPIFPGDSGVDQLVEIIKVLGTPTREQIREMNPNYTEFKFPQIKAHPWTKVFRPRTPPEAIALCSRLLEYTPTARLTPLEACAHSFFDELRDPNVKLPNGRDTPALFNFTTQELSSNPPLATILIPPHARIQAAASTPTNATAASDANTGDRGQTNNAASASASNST
Please use t whenever inhibition is not below 50%, and f whenever it is.

>  <itemSmiles>
O=C(NCCC1CCN(Cc2cccc(F)c2)CC1)c1ccc2c(c1)[nH]c1c(NC(=O)C3CC3)nccc12

>  <measuredOn>
Glycogen synthase kinase-3 beta (Homo sapiens, UniProt P49841)

>  <answerLabel>
f

$$$$

## Task Hi team, for `O=C(NC1CCN(Cc2ccccc2F)CC1)c1ccc2c(c1)[nH]c1c(NC(=O)C3CC3)nccc12` , is the recorded inhibition at or above 50%?
## Result t

## Task Hi team, for `O=C(NC1CCN(Cc2cccc(F)c2)CC1)c1ccc2c(c1)[nH]c1c(NC(=O)C3CC3)nccc12` , is the recorded inhibition at or above 50%?
## Result t

## Task Hi team, for `Cc1ccc(CN2CCC(CNC(=O)c3ccc4c(c3)[nH]c3c(NC(=O)C5CC5)nccc34)CC2)cc1` , is the recorded inhibition at or above 50%?
## Result f

## Task Hi team, for `O=C(NC1CCN(Cc2ccccc2)CC1)c1ccc2c(c1)[nH]c1c(NC(=O)C3CC3)nccc12` , is the recorded inhibition at or above 50%?
## Result t

## Task Hi team, for `O=C(NCC1CCN(Cc2cccc(F)c2)CC1)c1ccc2c(c1)[nH]c1c(NC(=O)C3CC3)nccc12` , is the recorded inhibition at or above 50%?
## Result f

## Task Hi team, for `O=C(NCCC1CCN(Cc2ccccc2)CC1)c1ccc2c(c1)[nH]c1c(NC(=O)C3CC3)nccc12` , is the recorded inhibition at or above 50%?
## Result f

## Task Hi team, for `O=C(NC1CCN(Cc2cc(F)cc(F)c2)CC1)c1ccc2c(c1)[nH]c1c(NC(=O)C3CC3)nccc12` , is the recorded inhibition at or above 50%?
## Result f

## Task Hi team, for `O=C(NCCC1CCN(Cc2cccc([N+](=O)[O-])c2)CC1)c1ccc2c(c1)[nH]c1c(NC(=O)C3CC3)nccc12` , is the recorded inhibition at or above 50%?
## Result t

---

Measured inhibition of individual entries
target: Glycogen synthase kinase-3 beta (Homo sapiens, UniProt P49841); test: Inhibition of GSK3-beta (unknown origin) at 10 uM incubated for 60 mins by ATP-Glo luminescent assay
Write down the numeric answer in % and omit the unit.

Answered cases to consult:
>  <itemSmiles>
O=C(NCCC1CCN(Cc2ccccc2F)CC1)c1ccc2c(c1)[nH]c1c(NC(=O)C3CC3)nccc12

>  <measuredOn>
Glycogen synthase kinase-3 beta (Homo sapiens, UniProt P49841)

>  <inhibition [%]>
60.8

$$$$
>  <itemSmiles>
O=C(NC1CCN(Cc2ccc(Cl)cc2)CC1)c1ccc2c(c1)[nH]c1c(NC(=O)C3CC3)nccc12

>  <measuredOn>
Glycogen synthase kinase-3 beta (Homo sapiens, UniProt P49841)

>  <inhibition [%]>
57.9

$$$$

## Task Read the entry `O=C(NCC1CCN(Cc2cccc([N+](=O)[O-])c2)CC1)c1ccc2c(c1)[nH]c1c(NC(=O)C3CC3)nccc12` and write its reported inhibition.
## Result 52.1

## Task Read the entry `O=C(NCC1CCN(Cc2ccc(Cl)cc2)CC1)c1ccc2c(c1)[nH]c1c(NC(=O)C3CC3)nccc12` and write its reported inhibition.
## Result 11.7
